- Read-out: Tumor necrosis factor receptor 1 (TNFRSF1A), TNFRSF1A (gene 7132)
- assay.protocol: LTEA_HepaRG_TNFRSF1A: Life Technologies and Expression Analysis (LTEA) Assay for Tumor necrosis factor receptor 1 (TNFRSF1A) using HepaRG (AID 2283535)
- experimental.parameters: mRNA level, 48 h; actives raise or lower the signal
Active and inactive are the calls of the source. How the source made its calls: active means hit-call score of the fitted dose curve at least 0.9, where 1 is the maximum; inactive means score below 0.9.
Outcome codes: YES = active, NO = inactive

structure: CC(C)(c1ccccc1)c1ccc(O)c(C(C)(C)c2ccccc2)c1
label: NO
--
structure: CCN1CCC2(CC1)COc1cc3c(cc12)N(C(=O)c1ccc(-c2ccc(-c4nnc(C)o4)cc2C)cc1)CC3
label: YES
--
structure: O=C(O)C(F)(F)C(F)(F)C(F)(F)C(F)(F)C(F)(F)C(F)(F)C(F)(F)C(F)(F)C(F)(F)C(F)(F)F
label: NO
--
structure: CC(C)(OO)c1ccccc1
label: NO
--
structure: CC(C)(C)CC(C)(C)c1ccc(O)cc1
label: NO
--
structure: ClCC(Cl)CCl
label: NO

----------
- assay.target: human CYP19A1, CYP19A1 (gene 1588) (UniProt P11511)
- Sequence (P11511 whole entry, looked up): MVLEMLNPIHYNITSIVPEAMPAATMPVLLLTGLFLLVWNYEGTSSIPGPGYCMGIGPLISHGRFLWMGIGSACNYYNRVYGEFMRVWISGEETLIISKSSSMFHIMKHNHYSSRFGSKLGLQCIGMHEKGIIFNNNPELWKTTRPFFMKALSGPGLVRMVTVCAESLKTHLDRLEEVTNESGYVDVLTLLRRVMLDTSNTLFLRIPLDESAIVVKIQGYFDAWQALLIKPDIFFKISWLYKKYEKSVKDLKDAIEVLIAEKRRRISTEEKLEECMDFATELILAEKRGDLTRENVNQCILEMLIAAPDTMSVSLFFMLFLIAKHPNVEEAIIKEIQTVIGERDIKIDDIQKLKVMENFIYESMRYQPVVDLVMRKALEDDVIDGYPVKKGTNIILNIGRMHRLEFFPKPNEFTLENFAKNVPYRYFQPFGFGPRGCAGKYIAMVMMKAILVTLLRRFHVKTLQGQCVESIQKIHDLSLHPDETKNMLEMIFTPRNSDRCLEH
- assay.protocol: NVS_ADME_hCYP19A1: NovaScreen (NVS) CYP450-related Enzyme Activity (ADME) Assay for human CYP19A1 (AID 2283098)
Records with an inconclusive call do not appear. Activity calls are given as the source filed them. How the source made its calls: active means hit-call score of the fitted dose curve at least 0.9, where 1 is the maximum; inconclusive means response in the unintended direction; inactive means score below 0.9.
Outcome codes: active, inactive

compound: CCC[CH2][Sn]([Cl])([Cl])[Cl]
label: inactive
--
compound: Oc1cccc2cccnc12
label: inactive
--
compound: O=C1C(Cl)=C(Cl)C(=O)c2ccccc21
label: active
--
compound: OCc1ccco1
label: inactive
--
compound: CC(=O)C=C(C)C
label: inactive
--
compound: Fc1ccc(C2(Cn3cncn3)OC2c2ccccc2Cl)cc1 (stereo unspecified)
label: active

----------
- Read-out: Collagen III, COL3A1 (gene 1281)
- assay.protocol: BSK_hDFCGF_CollagenIII: BioMAP Diversity Plus: hDFCGF Assay for Collagen III Biomarker Activity (AID 2283056)
- experimental.parameters: primary human foreskin fibroblasts; actives raise or lower the signal
Activity calls are given as the source filed them. How the source made its calls: active means hit-call score of the fitted dose curve at least 0.9, where 1 is the maximum; inactive means score below 0.9.
Outcome codes: true = active, false = inactive

compound: Oc1ccc(-c2ccccc2)cc1
label: false
--
compound: COP(=S)(OC)Oc1cc(Cl)c(Cl)cc1Cl
label: true
--
compound: CCC(C)(C)c1ccc(O)c(C(C)(C)CC)c1
label: true
--
compound: CN(C)N=O
label: false
--
compound: COC[C@H](C)N(C(=O)CCl)c1c(C)csc1C
label: false
--
compound: CC12CC1(C)C(=O)N(c1cc(Cl)cc(Cl)c1)C2=O (configuration not stated)
label: false
--
compound: COP(=S)(OC)Oc1ccc(Sc2ccc(OP(=S)(OC)OC)cc2)cc1
label: false
--
compound: CC(=O)C(Cl)C(=O)N(C)C (configuration not stated)
label: true
--
compound: CC(C)(C)CC(C)(C)c1ccc(O)cc1
label: true
--
compound: O=C1C2(Cl)C3(Cl)C4(Cl)C(Cl)(Cl)C5(Cl)C3(Cl)C1(Cl)C5(Cl)C24Cl (configuration not stated)
label: true
--
compound: O=C(O)C(Cl)(Cl)Cl
label: false
--
compound: NC(=O)O
label: false
--
compound: Oc1c(I)cc(I)cc1I
label: true
--
compound: C=C(C)C(=O)[O][Sn]([CH2]CCC)([CH2]CCC)[CH2]CCC
label: true
--
compound: CC1(C)Cc2cccc(O)c2O1
label: false
--
compound: O=C(O)C(F)(F)C(F)(F)C(F)(F)C(F)(F)C(F)(F)C(F)(F)F
label: false
--
compound: CCCCC(CC)CO[N+](=O)[O-] (configuration not stated)
label: false
